B1: OR4K15 (parent)
chain: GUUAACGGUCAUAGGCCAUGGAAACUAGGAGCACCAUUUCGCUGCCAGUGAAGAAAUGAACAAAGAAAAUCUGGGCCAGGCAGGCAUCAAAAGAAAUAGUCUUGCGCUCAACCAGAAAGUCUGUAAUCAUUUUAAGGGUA

Variants of: B1
PROTOCOL NOTES: self-cleavage, relative activity (ratio to wild type); higher = more cleavage; in vitro, sequencing; the parent is a self-cleaving ribozyme
Reported self-cleavage values for the following variants.
Output spec: single numeric token, no unit.

I would be grateful if you could share the reported self-cleavage for GUUAACGGUCACAGGCCAUGGAAACUAGGAGCACCAUUUCGCUGCCAGUGAAGAAAUGAACAAAGAAAAUCUGGGCCAGGCAGGCAUCAAAAGAAGUAGUCUUGCGCUCAACCAGAAAGUCUGUAAUCAUUUUAAGGGUA [U12C A96G] . 1.02
